- procedureText: PK of 20 kDa PEGylated relaxin polypeptides after a single subcutaneous injection in SD rats (Example 40)
- Type: in vivo, Sprague-Dawley (SD) rats
- particulars: 0.5 mg/kg SC, male SD rats, 25 hr
Non-standard residues stand in square brackets, D forms with d. No end group written: not given here. Phe(4-Ac) = CC(=O)c1ccc(C[C@H](N)C(=O)O)cc1

[
  {
    "substance": "RLX-A-BW28-20KPEG-001: relaxin variant, B1 Ala, pAF at B chain position W28, 20K PEGylated (chain 1 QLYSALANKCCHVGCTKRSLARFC; chain 2 ASWMEEVIKLCGRELVRAQIAICGMST[Phe(4-Ac)](PEG 20 kDa)S; not fully specified (bridges); ends and bridges not checked)",
    "quantityUnit": "ng/mL",
    "Mean serum Conc.": 511.0
  },
  {
    "substance": "RLX-A-AA5-20KPEG-001: relaxin variant, B1 Ala, pAF at A chain position A5, 20K PEGylated (chain 1 QLYSXLANKCCHVGCTKRSLARFC; chain 2 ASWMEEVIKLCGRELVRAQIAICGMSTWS; not fully specified; non-natural residues)",
    "quantityUnit": "ng/mL",
    "Mean serum Conc.": 438.0
  },
  {
    "substance": "RLX-A-AV13-20KPEG-001: relaxin variant, B1 Ala, pAF substituted for valine 13 in the A chain, 20K PEG attached (chain 1 QLYSALANKCCHXGCTKRSLARFC; chain 2 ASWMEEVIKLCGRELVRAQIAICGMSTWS; not fully specified; non-natural residues)",
    "quantityUnit": "ng/mL",
    "Mean serum Conc.": 742.5
  }
]
